assay.system: Glutathione S-transferase P (Homo sapiens)
Sequence (P09211 whole entry): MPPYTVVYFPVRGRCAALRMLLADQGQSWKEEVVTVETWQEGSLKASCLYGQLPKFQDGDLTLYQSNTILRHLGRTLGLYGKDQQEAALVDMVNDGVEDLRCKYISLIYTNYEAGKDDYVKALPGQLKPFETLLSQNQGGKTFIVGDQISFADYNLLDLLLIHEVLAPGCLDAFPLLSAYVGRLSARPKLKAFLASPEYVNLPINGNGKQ
test.protocol: Inhibition of recombinant GSTP1 (unknown origin) using GSH substrate
pIC50: −log10 of the molar value.
assay.metric: pIC50

query.smiles: O=c1cc1-c1ccc(OCc2ccccc2)cc1
pIC50: 6.14

query.smiles: O=c1cc1-c1ccc(OCc2ccc(-c3ccccc3)cc2)cc1
pIC50: 5.49

query.smiles: COc1ccc2cc(-c3cc3=O)ccc2c1
pIC50: 5.70

query.smiles: C#CCOC(=O)CCCCc1cc1=O
pIC50: 5.93

query.smiles: C#CCOc1ccc(-c2cc2=O)cc1
pIC50: 5.79

[a] O=c1cc1-c1ccc(Oc2ccccc2)cc1
[b] O=c1cc1-c1ccc2ccccc2c1
Field: lower recorded pIC50 (choose a or b ) Answer format: the label of the selected item.
a

====

System: MDA-MB-453
test.protocol: Antiproliferative activity agaisnt human MDA-MB-453 cells assessed as cell viability incubated for 24 hrs by CCK8 assay
Format: functional, cell-based
experimental.context: MDA-MB-453, 24 h
pIC50: −log10 of the molar value.
assay.metric: pIC50

[I] O=c1cc1-c1ccc(OCc2ccccc2)cc1
[II] COc1ccc2cc(-c3cc3=O)ccc2c1
From the recorded data, which exceeds the other in pIC50: I or II ? Answer by stating the label of the chosen item.
I
